Target: recombinant ROCK2 (amino acids 1-552) (Homo sapiens (Human), UniProt O75116)
Sequence (O75116 1-552): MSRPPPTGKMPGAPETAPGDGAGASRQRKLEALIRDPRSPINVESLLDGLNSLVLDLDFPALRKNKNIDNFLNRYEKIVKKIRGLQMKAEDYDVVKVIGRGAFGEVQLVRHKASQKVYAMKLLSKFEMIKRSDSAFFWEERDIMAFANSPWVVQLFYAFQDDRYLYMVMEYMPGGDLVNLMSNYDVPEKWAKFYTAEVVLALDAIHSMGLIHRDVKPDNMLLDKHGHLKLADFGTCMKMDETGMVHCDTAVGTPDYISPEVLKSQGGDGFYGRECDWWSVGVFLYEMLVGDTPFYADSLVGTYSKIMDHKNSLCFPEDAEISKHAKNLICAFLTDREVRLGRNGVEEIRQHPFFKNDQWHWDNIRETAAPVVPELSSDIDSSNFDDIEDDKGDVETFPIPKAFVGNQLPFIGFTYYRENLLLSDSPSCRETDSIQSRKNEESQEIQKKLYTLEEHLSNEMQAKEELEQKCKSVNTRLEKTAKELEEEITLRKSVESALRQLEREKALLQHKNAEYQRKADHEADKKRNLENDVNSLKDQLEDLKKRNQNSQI
Experiment: Z'-lyte kinase assay, ROCK2
Procedure: Determination of compounds ROCK inhibitory activity in vitro (Z'lyte assay): recombinant ROCK1 (amino acids 1-535) and ROCK2 (amino acids 1-552) proteins were purchased from ThermoFisher Scientific. Compounds activities were measured by Z'-lyte kinase kit (ThermoFisher Scientific) and IC50s were calculated. Compounds activities were measured by Z'-lyte kinase kit (ThermoFisher Scientific). […]
Each entry below lists one item and its recorded log10(IC50) value.
ENDPOINT_NAME: log10(IC50) (log10 of the value in nM)

[
  {
    "COMPOUND": "CNC(C(=O)Nc1ccc(-c2cn[nH]c2)cc1)c1ccc(N(C)C)cc1 (centres unmarked)",
    "log10(IC50)": 1.74
  },
  {
    "COMPOUND": "CCNC(C(=O)Nc1ccc(-c2cn[nH]c2)cc1)c1ccc(OC)cc1 (centres unmarked)",
    "log10(IC50)": 1.32
  },
  {
    "COMPOUND": "CNCCNC(C(=O)Nc1ccc(-c2cn[nH]c2)cc1)c1cccc(OC)c1 (centres unmarked)",
    "log10(IC50)": 0.72
  },
  {
    "COMPOUND": "CN[C@@H](C(=O)Nc1ccc(-c2cn[nH]c2)cc1)c1cccc(OC)c1",
    "log10(IC50)": 1.08
  },
  {
    "COMPOUND": "CNCCN[C@@H](C(=O)Nc1ccc(-c2cn[nH]c2)cc1)c1cccc(OC)c1",
    "log10(IC50)": 0.26
  },
  {
    "COMPOUND": "COc1cccc(C(NCCOCC(F)(F)F)C(=O)Nc2ccc(-c3cn[nH]c3)cc2)c1 (centres unmarked)",
    "log10(IC50)": 1.83
  },
  {
    "COMPOUND": "CN[C@@H](C(=O)Nc1cc(F)c(-c2cn[nH]c2)cc1OCCN(C)C)c1cccc(OC)c1",
    "log10(IC50)": 1.66
  }
]

----------
system: ppMlc (T18/S19) levels in A7R5 cells; experiment: A7R5 in-cell ELISA assay (ppMlc); assay type: cell-based, rat; conditions: Rattus norvegicus, A7R5, A7R5 cells, Table 2; read-out: pMLC IC50 (nM) A7R5
Mark 1.0 only when IC50 stays strictly below 500 nM. Values equal to the cut-off are 0.0.

[
  {
    "COMPOUND": "CCN(CCOC)C(C(=O)Nc1ccc(-c2cn[nH]c2)cc1)c1cccc(OC)c1 (stereo not drawn)",
    "CLASS_ASSIGNMENT": 0.0
  },
  {
    "COMPOUND": "CNC(C(=O)Nc1ccc(-c2cn[nH]c2)cc1)c1ccc2nc(C)sc2c1 (stereo not drawn)",
    "CLASS_ASSIGNMENT": 0.0
  },
  {
    "COMPOUND": "CNC(C(=O)Nc1ccc(-c2cn[nH]c2)cc1)c1ccc(Cl)cc1 (stereo not drawn)",
    "CLASS_ASSIGNMENT": 1.0
  },
  {
    "COMPOUND": "CCNC(C(=O)Nc1ccc(-c2cn[nH]c2)cc1)c1ccc(F)cc1 (stereo not drawn)",
    "CLASS_ASSIGNMENT": 1.0
  },
  {
    "COMPOUND": "COCCNC(C(=O)Nc1ccc(-c2cn[nH]c2)cc1)c1cccc(OC)c1 (stereo not drawn)",
    "CLASS_ASSIGNMENT": 0.0
  },
  {
    "COMPOUND": "CNCCN[C@H](C(=O)Nc1ccc(-c2cn[nH]c2)cc1)c1cccc(OC)c1",
    "CLASS_ASSIGNMENT": 0.0
  },
  {
    "COMPOUND": "CNC(=O)CNC(C(=O)Nc1ccc(-c2cn[nH]c2)cc1)c1cccc(OC)c1 (stereo not drawn)",
    "CLASS_ASSIGNMENT": 0.0
  },
  {
    "COMPOUND": "CNC(C(=O)Nc1ccc(-c2cn[nH]c2)cc1)c1cccc(OC)c1 (stereo not drawn)",
    "CLASS_ASSIGNMENT": 1.0
  },
  {
    "COMPOUND": "CCNC(C(=O)Nc1ccc(-c2cn[nH]c2)cc1)c1cccc(OC)c1 (stereo not drawn)",
    "CLASS_ASSIGNMENT": 1.0
  },
  {
    "COMPOUND": "CNCCNC(C(=O)Nc1ccc(-c2cn[nH]c2)cc1)c1cccc(OC)c1 (stereo not drawn)",
    "CLASS_ASSIGNMENT": 1.0
  },
  {
    "COMPOUND": "COCC1(NC(C(=O)Nc2ccc(-c3cn[nH]c3)cc2)c2cccc(OC)c2)CC1 (stereo not drawn)",
    "CLASS_ASSIGNMENT": 0.0
  },
  {
    "COMPOUND": "CNC(C(=O)Nc1ccc(-c2cn[nH]c2)cc1)c1cccc(C(=O)O)c1 (stereo not drawn)",
    "CLASS_ASSIGNMENT": 0.0
  },
  {
    "COMPOUND": "COc1cccc(C(NCc2cn[nH]c2)C(=O)Nc2ccc(-c3cn[nH]c3)cc2)c1 (stereo not drawn)",
    "CLASS_ASSIGNMENT": 0.0
  },
  {
    "COMPOUND": "CN[C@H](C(=O)Nc1ccc(-c2cn[nH]c2)cc1)c1ccc(Cl)cc1",
    "CLASS_ASSIGNMENT": 1.0
  },
  {
    "COMPOUND": "CNC(=O)c1ccc(C(NC)C(=O)Nc2ccc(-c3cn[nH]c3)cc2)cc1 (stereo not drawn)",
    "CLASS_ASSIGNMENT": 0.0
  },
  {
    "COMPOUND": "CNC(C(=O)Nc1ccc(-c2cn[nH]c2)cc1)c1ccccc1OC (stereo not drawn)",
    "CLASS_ASSIGNMENT": 0.0
  },
  {
    "COMPOUND": "CNC(C(=O)Nc1ccc(-c2cn[nH]c2)cc1)c1ccc(OC)c(F)c1 (stereo not drawn)",
    "CLASS_ASSIGNMENT": 1.0
  }
]
